EXPERIMENTAL_SYSTEM: Fibroblast growth factor 2 (Homo sapiens)
PROCEDURE_TEXT: FGF2 binders on small-molecule microarrays, primary screen, biochemical, small-molecule microarray, 635/667 nm fluorescence (AID 1133)
CONDITION_CONTEXT: small-molecule microarray binding, FGF2, fluorescence 635/667; higher = more signal
MEASURE_NAME: composite z-score

In [3]: df
Out[3]:
                                   molecule       measure_name  value
0  Cc1ccccc1C(O)C1C=CC2C(=O)N(c3ccccc3)C(=O)C2N1Nc1ccc(C#N)cc1 (centres undefined)  composite z-score  0.302
1  O=[N+]([O-])c1ccc(C[n+]2ccc3ccc(O)cc3c2)o1  composite z-score  0.227
2  CCN1C(C)=C(C(=O)OC)[C@@H](c2ccccc2)N2C(=O)[C@](O)(C(=O)OC)[C@@H](c3ccccc3)C(C(=O)c3ccccc3)=C12  composite z-score  0.411
3  O=C1c2ccccc2[C@](Cc2ccccc2I)(C(=O)O)[C@H](c2ccc(CO)cc2)N1C1CCCCC1  composite z-score   1.06

---

PROCEDURE_TEXT: MM1S cell viability effects, profiling panel, calcein-AM fluorescence, 48 h, basal (AID 1165);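 note: viability of MM1S multiple myeloma cells under basal unstimulated conditions; test concentration not given here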
CONDITION_CONTEXT: higher = more signal
Known z-score of a selection of molecules
MEASURE_NAME: z-score

                                   molecule  measure_name   value
0  Cc1ccc(N2C(=O)c3ccccc3[C@@H](C(=O)NCC(F)(F)F)[C@@H]2c2ccc(CO)cc2)nc1       z-score  0.0049
1  COc1ccc(C(=O)Nc2ccc(CN3C(=O)[C@]4(O[C@H](CCn5cc(CCO)nn5)[C@@H]([Si](C)(C)c5ccc(OC)cc5)[C@@H]4C)c4ccccc43)cc2)cc1       z-score   -2.68
2  O=C1OCC=C[C@H]2OC34C=CCN(Cc5ccccc5)C(=O)[C@H]3N(CCO)C(=O)[C@@H]4[C@@H]12 (some centres undefined)       z-score    1.12
3  O=C(NCC(O)CO)[C@]1(Cc2ccccc2)N=C(c2ccc(OCCCO)cc2)O[C@@H]1c1ccccc1 (some centres undefined)       z-score   -1.26

---

Test system: glycogen synthase kinase-3 (GSK3A per assay name; protocol says GSK3B)
PROCEDURE_TEXT: GSK3 binders on small-molecule microarrays, primary screen, biochemical, small-molecule microarray, 635 nm fluorescence, GSK3A (AID 1103); note: the record names both GSK3A and GSK3B
CONDITION_CONTEXT: small-molecule microarray binding, fluorescence 635 nm; higher = more signal
If the reported composite z-score equals or exceeds 0.6, assign true (1). If not, assign false (0).

MOLECULE	GROUP
COCCOC(=O)N1C(=O)[C@@]2(c3cc(C#CC4=CCCCC4)ccc31)[C@H](C(=O)NC[C@H](O)c1ccccc1)[C@H]1C(=O)O[C@H](c3ccccc3)[C@H](c3ccccc3)N1[C@@H]2c1ccccc1OCCO	true (1)
CC(C)(C)OC(=O)CC[C@@]1(C(=O)NCc2ccccc2)N=C(c2ccc(OCCCO)cc2)O[C@@H]1c1ccccc1	true (1)
COc1ccc(C(O)C2C=CC3C(=O)N(C)C(=O)C3N2N2CCCCC2)cc1OCc1ccccc1 (configuration not stated)	true (1)
COC(=O)[C@@]1(Cc2ccccc2CN=[N+]=[N-])N=C(c2ccc(OCCCO)cc2)O[C@H]1c1ccccc1N=[N+]=[N-]	false (0)
CCN1C(C)=C(C(=O)OC)[C@@H](c2ccccc2)N2C(=O)[C@](O)(C(=O)OC)[C@@H](c3ccccc3)C(C(=O)c3ccccc3)=C12	true (1)
Cc1ccc(S[C@]2(C(=O)NC(C)C)CC(=O)N(Cc3cc(C(F)(F)F)cc(C(F)(F)F)c3)[C@@H]2c2ccc(CO)cc2I)cc1	false (0)
CO[C@H]1COC(=O)CC=C[C@@H](C)COC(=O)[C@@H](C)NC(=O)CC=C[C@@H]1C	true (1)

---

PROCEDURE_TEXT: A549 lung cancer cell viability effects, profiling panel, resazurin fluorescence, 24 h, PK04 Diversity Set (AID 1171); note: test concentration not given here
CONDITION_CONTEXT: higher = more signal, called active from +8 up or from −8 down
Active and inactive are the calls of the source.
Known z-score of a selection of molecules

MOLECULE	z-score
CN1C2C=C(c3ccc(CO)cc3)C(C3C(=O)N(C(N)=O)C(=O)C32)C1c1cccs1 (configuration not stated)	0.567 (inactive)
CO[C@H]1COC(=O)CC=C[C@H](C)[C@@H](OC)COC(=O)[C@H](Cc2ccccc2)NC(=O)CC=C[C@@H]1C	0.345 (inactive)
COCCCNC(=O)[C@@]1(c2ccc([N+](=O)[O-])cc2)CC(=O)N(C2CCCCC2)[C@@H]1c1ccc(CO)cc1	0.902 (inactive)
C=CCC(OC(C)=O)[C@@H]1[C@@H](N(Cc2cc3ccccc3o2)C(=O)c2ccc(C)cc2)c2cc(OCCCO)ccc2N1C(=O)c1ccc2ccccc2n1 (some centres not stated)	1.66 (inactive)
CO[C@H]1COC(=O)[C@@H](Cc2ccccc2)NC(=O)[C@@H](C)COC(=O)CC=C[C@@H]1C	1.2 (inactive)
CCOC(=O)[C@H]1C/C=C/C[C@H](C(=O)OCC)C(=O)O[C@H]2[C@@H](OC)O[C@H](CO)[C@@H](OC(=O)Nc3ccc(Br)cc3)[C@@H]2OC1=O	-7.29 (inactive)
C[C@H]1NC(=O)[C@@H](C)NC(=O)[C@@]23C(=O)N[C@@H](Cc4ccccc4)C2[C@H](C)[C@@]2(C)O[C@H]2C3/C=C/C/C=C\CNC1=O (some centres not stated)	0.381 (inactive)

---

Known z-score of a selection of molecules
PROCEDURE_TEXT: E. coli growth modulation, two-sided OD650, primary screen, E. coli filamentation project, strain DRC41, 24 h (AID 1093);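 note: MC1000 strain lacking acrAB efflux and sulA so SOS filamentation is blocked; test concentration not given here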
CONDITION_CONTEXT: OD650, 24 h, higher = more signal, called active from +8 up or from −8 down
MEASURE_NAME: z-score

MOLECULE	MEASURE_NAME	VALUE
CC(C)C[C@@H]1NC(=O)[C@H]2C[C@@H](C(=O)NCCCCCC[N+](C)(C)C)[C@@H](c3ccc(O)cc3)N2C1=O	z-score	0.283
O=C(NCc1ccccc1)[C@@]1(Cc2ccccc2)COC(c2ccc(OCCCO)cc2)=N1	z-score	0.624
CC(C)[Si](OCC[C@H]1O[C@]2(C(=O)N(Cc3ccccc3)c3ccccc32)[C@@H](C)[C@@H]1[Si](C)(C)O)(C(C)C)C(C)C	z-score	1.05
COc1ccc([C@H]2C[C@H]3C(Br)=C[C@]2(OC)C(=O)[C@]32CO2)cc1	z-score	-0.987
C=CCNC(=O)[C@H]1[C@@H]2C(=O)O[C@@H](c3ccccc3)[C@@H](c3ccccc3)N2[C@@H](c2ccccc2OCCO)[C@]12C(=O)N(C(=O)OCCOC)c1ccc(C#CCNC(N)=O)cc12	z-score	2.35
CO[C@H]1COC(=O)[C@H](C)COC(=O)[C@H](Cc2ccccc2)NC(=O)CC=C[C@H]1C	z-score	0.195
C[C@@H]1NC(=O)CC=C[C@@H](C)[C@@H]2C=C[C@H](O)[C@@H](COC(=O)[C@H](C)NC(=O)CC=C[C@@H](C)[C@@H]3C=C[C@H](O)[C@@H](COC1=O)O3)O2	z-score	0.602
Cc1ccc(N2C(=O)c3ccccc3[C@](C)(C(=O)O)[C@@H]2c2ccc(CO)cc2)nc1	z-score	1.62
CCCC[C@@H]1C[C@H]1[C@@H](NC(=O)c1cccs1)c1ccc(Cl)cc1	z-score	-1
CN1CCC(CCCO)=CC1C1CC1 (stereo unspecified)	z-score	1.08
CC(C)(C)OC(=O)CC[C@]1(C(=O)NCCN2CCOCC2)N=C(c2ccc(OCCCO)cc2)O[C@H]1c1ccccc1CN=[N+]=[N-]	z-score	1.71
C=CC[C@]1(C(=O)OC)N=C(c2ccc(OCCCO)cc2)O[C@H]1c1ccccc1CN=[N+]=[N-]	z-score	1.37
C[C@H]1COC(=O)[C@H](Cc2ccccc2)NC(=O)[C@@H](C)COC(=O)[C@H](Cc2ccccc2)NC1=O	z-score	-0.208
CO[C@@H]1COC(=O)[C@H](C)NC(=O)CC=C[C@@H](C)[C@H](NS(=O)(=O)c2ccc(C)cc2)COC(=O)CC=C[C@@H]1C	z-score	0.452
C=CCc1cccc([C@H]2N[C@H](C(=O)O)CC[C@@H]2C)c1	z-score	0.271
COc1ccc(CCNC(=O)[C@@]2(c3ccc([N+](=O)[O-])cc3)CC(=O)N(C(C)C)[C@@H]2c2ccc(CO)cc2)cc1	z-score	1.89

---

PROCEDURE_TEXT: small-molecule microarray binders of probe aCHRDL2, primary screen, biochemical, biotinylated probe, 635/667 nm fluorescence (AID 1100)
CONDITION_CONTEXT: higher = more signal
MEASURE_NAME: composite z-score

>>> df
                               smiles_entry       measure_name   value
0  CC(C)[Si](OCCCNS(=O)(=O)c1ccc(Br)cc1)(C(C)C)C(C)C  composite z-score  0.0951
1  COc1cccc([C@H]2N[C@H](C(=O)O)CC[C@@H]2C)c1  composite z-score  -0.136
2  CC1=C([C@H](O)CCc2ccccc2)[C@H](CO)[C@@H]2C(=O)N(Cc3ccccc3)C(=O)[C@@H]2C1  composite z-score  -0.551
3  CO[C@H]1COC(=O)[C@@H](C)COC(=O)[C@H](Cc2ccccc2)NC(=O)CC=C[C@H]1C  composite z-score   -1.09
4  CO[C@]12C=C(Br)[C@@H](C[C@@H]1c1ccccc1)[C@@]1(CO1)C2=O  composite z-score  -0.708
